assay.remarks: E. coli acrAB mutant growth effects, primary screen, E. coli filamentation inducers, strain DRC39, OD650, 24 h (AID 1178);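 note: growth measured as culture turbidity by optical density at 650 nm; test concentration not given here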
recorded.conditions: higher = more signal, called active from +8 up or from −8 down
readout.label: z-score
Answer with the value's number alone.

Form: molecule = "O=C(NC1CC1)[C@@H]1c2ccccc2C(=O)N(C2CCCCC2)[C@H]1c1ccc(CO)cc1" ; z-score = -0.185

Form: molecule = "O=C(O)C1=CC[C@H]2C(=O)N(c3ccccc3)C(=O)[C@@H]12" ; z-score = -0.897

Form: molecule = "C=C(CCCC)C(=O)CC[C@H](OC(=O)c1ccccc1-c1ccccc1C(=O)O)c1cccc(OCCO)c1" ; z-score = -0.778

Form: molecule = "C=CC[C@H](OC(=O)Nc1ccc(SC)cc1)c1ccc(O)c(F)c1" ; z-score = 0.332

Form: molecule = "CCc1cccc(NC(=O)O[C@H]2[C@H](OC(=O)Nc3ccccc3-c3ccccc3)[C@H](OC(=O)Nc3ccccc3-c3ccccc3)[C@@H](OC)O[C@@H]2CO)c1" ; z-score = -1.34

----------
assay.remarks: small-molecule microarray binders of probe aWnt5a, primary screen, biochemical, biotinylated probe, 635/667 nm fluorescence (AID 1113);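 note: score merges 667 nm fluorescence intensity with signal-to-noise per printed feature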
recorded.conditions: higher = more signal
Would you mind telling me the reported composite z-score of each entry?
Answer with the value's number alone.

Form: compound = "C=CCNC(=O)[C@H]1[C@@H]2C(=O)O[C@@H](c3ccccc3)[C@@H](c3ccccc3)N2[C@@H](c2ccc(O)cc2)[C@]12C(=O)Nc1ccccc12" ; composite z-score = -0.148

Form: compound = "COc1c(C)cc(-c2cc3c(c(CCc4ccccc4)n2)[Si](C(C)C)(C(C)C)O[C@H]3c2ccccc2)cc1C" ; composite z-score = 0.0136

Form: compound = "CC(=O)NCCCC[C@@H]1NC(=O)[C@H]2C[C@@H](C(=O)O)[C@@H](c3cccc(OCCO)c3)N2C1=O" ; composite z-score = 0.27

Form: compound = "COC(=O)[C@@]1(Cc2ccc(OC)cc2)[C@H]2c3cc(C(=O)N(C)C)n(Cc4c(CO)[nH]cc(C)c4=O)c3C[C@H]2CN1C(=O)c1ccccc1" ; composite z-score = 0.302

Form: compound = "[N-]=[N+]=Nc1ccccc1C[C@]1(C(=O)N2CCCCC2)N=C(c2ccc(OCCCO)cc2)O[C@H]1c1ccccc1" ; composite z-score = 0.0101

Form: compound = "COC(=O)C[C@H]1O[C@]2(C(=O)N(C)c3ccccc32)[C@@H](C)[C@@H]1[Si](C)(C)c1ccccc1" ; composite z-score = -0.124

Form: compound = "CCCCC(=C=CC[C@@H](O)c1ccc(OCCO)cc1)CCO" ; composite z-score = -0.101

----------
assay.remarks: small-molecule microarray binders of probe aXIP, primary screen, biochemical, NeuroSMM set, 635/667 nm fluorescence (AID 1119);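 note: probe is the protein aXip251-270 applied at 1 µg/mL to compound-printed slides; binding of probe to printed compounds measured as 667 nm fluorescence plus signal to noise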
recorded.conditions: higher = more signal, called active from +8 up or from −8 down
Tick 1 (yes) if composite Z-score is 0.3 or greater. Tick 0 (no) if composite Z-score is less than 0.3.

**Query** Textbook exercise: given the entry "COC(=O)c1c2oc(c1C(=O)OC)C(=O)N[C@H](Cc1ccccc1)Cn1cc(nn1)C1(CCCCC1)NC(=O)N[C@H](CO)CC2" , state whether its composite Z-score is greater than or equal to 0.3.
**Result** 1 (yes)

**Query** Textbook exercise: given the entry "CCCCC=C[C@@H](NC(=O)C(C)(C)C)c1ccccc1" , state whether its composite Z-score is greater than or equal to 0.3.
**Result** 0 (no)

**Query** Textbook exercise: given the entry "CC(C)C[C@@H]1NC(=O)[C@H]2C[C@@H](C(=O)O)[C@@H](c3cccc(OCCO)c3)N2C1=O" , state whether its composite Z-score is greater than or equal to 0.3.
**Result** 0 (no)

**Query** Textbook exercise: given the entry "CC(C)Cc1ccc(CN2CC[C@@H](NC(=O)c3ccccc3)C2)cc1" , state whether its composite Z-score is greater than or equal to 0.3.
**Result** 0 (no)

**Query** Textbook exercise: given the entry "C=CC[C@H](OC(=O)Nc1ccc(SC)cc1)c1ccc(O)c(F)c1" , state whether its composite Z-score is greater than or equal to 0.3.
**Result** 1 (yes)

**Query** Textbook exercise: given the entry "CC(C)(C)OC(=O)N1[C@@H](C=C(Br)Br)COC1(C)C" , state whether its composite Z-score is greater than or equal to 0.3.
**Result** 0 (no)

**Query** Textbook exercise: given the entry "CC[C@@H](O[Si](C#C[Si](C(C)C)(C(C)C)C(C)C)(C(C)C)C(C)C)c1cn([C@H](CO)Cc2ccccc2)nn1" , state whether its composite Z-score is greater than or equal to 0.3.
**Result** 0 (no)

**Query** Textbook exercise: given the entry "COCCCNC(=O)[C@]1(Cc2ccccc2N=[N+]=[N-])N=C(c2ccc(OCCCO)cc2)O[C@@H]1c1ccccc1" , state whether its composite Z-score is greater than or equal to 0.3.
**Result** 1 (yes)

----------
assay.remarks: small-molecule microarray binders of probe aXIP, primary screen, biochemical, NeuroSMM set, 635/667 nm fluorescence (AID 1119);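 note: probe is the protein aXip251-270 applied at 1 µg/mL to compound-printed slides; binding of probe to printed compounds measured as 667 nm fluorescence plus signal to noise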
recorded.conditions: higher = more signal, called active from +8 up or from −8 down
readout.label: composite Z-score
Answer with the value's number alone.

Form: molecule = "COc1ccc([Si](C)(C)[C@H]2[C@H](CC(=O)N(CCO)Cc3ccccc3)O[C@@]3(C(=O)N(Cc4cccc(N5CCCCC5=O)c4)c4ccccc43)[C@@H]2C)cc1" ; composite Z-score = 1.12

Form: molecule = "COC(=O)C(CC#Cc1ccc2c(c1)[C@]1(C(=O)N2)[C@H](C(=O)NC[C@H](O)c2ccccc2)[C@H]2C(=O)O[C@H](c3ccccc3)[C@H](c3ccccc3)N2[C@@H]1c1ccc(O)cc1)C(=O)OC" ; composite Z-score = 1.05

Form: molecule = CN1C(=O)C2C=CC(C(O)c3ccc(I)cc3)N(N(c3ccccc3)c3ccccc3)C2C1=O (centres undefined) ; composite Z-score = 0.263

Form: molecule = COC(=O)[C@H](Cc1ccccc1)N1CC(C)(OC)O[C@@H](Cc2ccccc2)[C@H]1/C=C/C1CC1 (some centres undefined) ; composite Z-score = 0.571

Form: molecule = "CCOC(=O)C1=CC[C@@H](c2ccccc2)N(S(=O)(=O)c2ccc(C)cc2)[C@@H]1C#N" ; composite Z-score = 0.4

Form: molecule = O=C1NC(=O)C2C1C=CC(C(O)c1ccc(F)cc1)N2Nc1ccc(Cl)cc1Cl (centres undefined) ; composite Z-score = 1.69

Form: molecule = "O=C(CS)NCCCCCCNC(=O)[C@H]1C[C@H]2C(=O)NCC(=O)N2[C@H]1c1cccc(OCCO)c1" ; composite Z-score = 0.54

Form: molecule = "CCc1cccc(NC(=O)O[C@H]2[C@H](OC(=O)Nc3ccccc3-c3ccccc3)[C@H](OC(=O)Nc3ccccc3-c3ccccc3)[C@@H](OC)O[C@@H]2CO)c1" ; composite Z-score = 0.814

Form: molecule = "COCCOC(=O)N1C(=O)[C@@]2(c3cc(C#CCC(C(=O)OC)C(=O)OC)ccc31)[C@H](C(N)=O)[C@H]1C(=O)O[C@H](c3ccccc3)[C@H](c3ccccc3)N1[C@@H]2c1ccccc1OCCO" ; composite Z-score = -0.145

Form: molecule = "COc1ccc([Si](C)(C)[C@@H]2[C@@H](CC(=O)N3Cc4ccccc4C[C@H]3CO)O[C@]3(C(=O)N(Cc4ccc(I)cc4)c4ccccc43)[C@H]2C)cc1" ; composite Z-score = 0.26

Form: molecule = CN1C(=O)C2CC=C(C3=CCO[C@@H]3[C@H]3CCCN3S(=O)(=O)c3ccccc3[N+](=O)[O-])CC2C1=O (some centres undefined) ; composite Z-score = 0.0129

Form: molecule = "Cc1c(NC(=O)/C(C#N)=C/C=C/c2ccc([N+](=O)[O-])cc2)c(=O)n(-c2ccccc2)n1C" ; composite Z-score = 0.947

Form: molecule = C=CCC(OC(C)=O)[C@@H]1[C@@H](N(Cc2ccc(-c3ccccc3)cc2)C(=O)Cc2ccc(OC)cc2)c2cc(OCCCO)ccc2N1C(=O)c1ccc2ccccc2c1 (some centres undefined) ; composite Z-score = -0.0949

Form: molecule = "C=C(COC)/C(=C/C[C@@H](OC(C)=O)c1cccc(OCCO)c1)c1cnc2ccccc2c1" ; composite Z-score = -0.365

----------
Test system: Plasmodium falciparum Sir2 (PF13_0152, Sir2A)
assay.remarks: pfSir2 binders on small-molecule microarrays, primary screen, biochemical, small-molecule microarray, 635 nm fluorescence (AID 1098);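 note: score merges spot fluorescence intensity with its signal-to-noise ratio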
recorded.conditions: small-molecule microarray binding, fluorescence 635 nm; higher = more signal
readout.label: composite z-score
Answer with the value's number alone.

Form: compound = "O=C1c2ccccc2[C@@]2(Cc3ccccc3N(CC(F)(F)F)C2=O)[C@H](c2ccc(CO)cc2)N1Cc1ccccc1" ; composite z-score = -0.33

Form: compound = "C[N+](C)(C)CCCC[C@@H]1NC(=O)[C@H]2C[C@@H](C(=O)NCCCCCN)[C@@H](c3ccc(O)cc3)N2C1=O" ; composite z-score = 0.977

Form: compound = O=C1NC(=O)C2C1C=CC(C(O)C(O)CO)N2Nc1ccccn1 (centres undefined) ; composite z-score = 0.0854

Form: compound = "COCCCNC(=O)[C@@]1(Cc2ccccc2I)c2ccccc2C(=O)N(Cc2ccccc2C(F)(F)F)[C@H]1c1ccc(CO)cc1" ; composite z-score = 0.228
